system_under_test: T1, human 4-1BB His protein (Sinobiological, Beijing #10041-H08H) (human, UniProt Q07011 24-186, biotinylated in the capture ELISA (sites not given))
T1 construct: Bought protein; also called biotinylated 4-1BB-his protein; not shown: His tag
procedure_text: capture ELISA, antibody captured, biotinylated 4-1BB-his
endpoint_name: EC50 (µg/mL)
Unit µg/mL implied. Number only.

**Q:** Look up EC50 for this binder: murine mAb B1E10 (antibody, V domains shown, Murine hybridoma antibody) VH: EVQLVESGGGLVEPGGSLKLSCAASGFTFGDYYMYWVRQTPEKRLEWVATISDGGSYTYYPDNVKGRFTISRDNAKNSLDLQMSHLKSEDTAMYYCARYYSKALYAMDYWGRGTSVTVSS VL: DIVLTQSPASLAVSLGQRATLSCRASKSVSTSGFSYIHWYQQKPGQPPKLLIYTASNLESGVPARFSGSGSGTDFTLNIHPVEEEDAATYYCQHSRELPLTFGAGTKLEVK
**A:** 0.881
